Test system: HCT-116 colon
Assay Procedure: NCI tumour cell line growth inhibition, 48 h
Value Type: GI50

Sample answers from the record:
{"Compound": "Cc1ccc2cccc(OC(=O)Nc3cccc(C(F)(F)F)c3)c2n1", "GI50": "3.27 µM"}
{"Compound": "COc1ccc(C(=NN=C(N)N)c2ccc(OC)cc2)cc1", "GI50": "3.15 µM"}
{"Compound": "O=C1c2cccnc2C(=O)c2c1c(C(=O)OCCN1CCCCC1)c1ccccn21", "GI50": "0.041 µM"}

List the reported GI50 of each compound below.
1. C#Cc1cccc(Nc2ncnc3ccc(OCCCCNCCS(C)(=O)=O)cc23)c1
2. CCN(CC)CC[n+]1ccc2c(C)c3[nH]c4ccc(O)cc4c3c(C)c2c1

6.81 µM
4.36 µM

// input: 2 compounds below; output: GI50 for each
1. COc1cccc(-c2cc(=O)c3cc(N4CCOCC4)ccc3[nH]2)c1
2. Cc1cc(N2CCCCC2)nc(NC2CCCC(Nc3ccnc4cc(Cl)ccc34)C2)n1 (configuration not stated)

1. 0.0371 µM
2. 1.02 µM

---

System: NCI-H460 lung
Assay Procedure: NCI tumour cell line growth inhibition, 48 h
Kindly supply the reported TGI values for the records listed here.

{"Molecule": "C=C1C[C@@H]2O[C@H]3[C@H]4[C@@H](C[C@@H](C)[C@@H](OC(C)=O)[C@H]42)[C@@H](C)CO[C@@]3(C)[C@H](OC(=O)CCCCCCC)C[C@H]1O", "TGI": "30.1 µM"}

// each molecule listed below needs its TGI
1. CSc1nc(CO)c(CO)n1C
2. CCCCCCCCCCCCCCCCCCNc1ccn(C2OC(CO)C(OP(=O)(O)OCC(O)COP(=O)(O)OCC3OC(n4cc(F)c(NCCCCCCCCCCCCCCCCCC)nc4=O)CC3O)C2O)c(=O)n1 (centres undefined)
3. CC(=O)NCCCCN(CCCNC(C)=O)C(=O)CNS(=O)(=O)c1cccc2c(N(C)C)cccc12

1. > 100 µM
2. > 50 µM
3. > 100 µM

---

Would you kindly list TGI for each of these compounds?
System: SW-620 colon
Assay Procedure: NCI tumour cell line growth inhibition, 48 h

Here is how some compounds turned out for TGI.
{"Compound": "CCCCCCCCCCCCCC1=C(O)C(=O)C(CC2=C(O)C(=O)C(CCCCCCCCCCCCC)=C(O)C2=O)=C(O)C1=O", "Experimental Result": "> 100 µM"}
{"Compound": "Cn1c(=O)nc2n(-c3ccc(Cl)cc3)c3cc(Cl)ccc3nc-2c1=O", "Experimental Result": "4.22 µM"}

Hi, could you look up TGI for each item in my list?
1. CN(Cc1cn(O)c2nc(=N)nc(N)c-2n1)c1ccc(C(=O)NC23CC4CC(CC(C4)C2)C3)cc1
2. CSc1nn(C)cc2ncnc1-2
3. CC(=O)c1cc2c(s1)C(=O)c1sccc1C2=O
4. O=C1C2CCCCC2C(=O)N1n1c(-c2ccccc2)n[nH]c1=O (stereo not given)
5. O=c1[nH]c(=O)n(C2CC(O)C(CO)O2)cc1C(F)(C(F)(F)F)C(F)(F)F (stereo not given)
6. OC[C@H]1NC[C@@H](O)[C@@H](O)[C@H]1O

1: > 100 µM; 2: > 100 µM; 3: 0.28 µM; 4: > 100 µM; 5: > 100 µM; 6: > 100 µM

State recorded TGI for all listed compounds.
1. C=CC(=O)N1C[C@@H]2CCOc3c(Cl)c(-c4c(O)cccc4F)c(F)c4ncnc(c34)N2C[C@H]1C
2. O=C(Cc1nc2ccccc2o1)C(=O)Nc1cccc(Cl)c1

["33.1 µM", "> 100 µM"]
